test: cells; conditions: Homo sapiens, HCC827, 72 h
pIC50: −log10 of the molar value.
QUANTITY_KIND: pIC50

• C=CC(=O)Nc1cccc(N2C(=O)N(C)Cc3cnc(Nc4ccc(N5CCC(N(C)C)CC5)cc4OC)nc32)c1 = 6.82

I: C=CC(=O)Nc1cccc(N2C(=O)N(C)Cc3cnc(Nc4ccc(N5CCOCC5)cc4OC)nc32)c1
II: C=CC(=O)Nc1cccc(Oc2nc(Nc3ccc(N4CCN(C)CC4)cc3OC)ncc2Cl)c1
III: C=CC(=O)Nc1cccc(N2C(=O)N(C)Cc3cnc(Nc4ccc(N5CCN(C)CC5)cc4OC(C)C)nc32)c1
IV: C=CC(=O)Nc1cccc(N2C(=O)N(C)Cc3cnc(Nc4ccccc4)nc32)c1
Problem: Rank descending by pIC50. A ranking is expressed here by listing the labels in the requested order.
Solution: II, III, IV, I

###

target: Epidermal growth factor receptor (Homo sapiens, UniProt P00533, L858R/T790M); assay: Inhibition of EGFR L858R/T790M mutant after 1.5 hr by FRET assay
Sequence (P00533 25-1210 T790M/L858R limits assumed): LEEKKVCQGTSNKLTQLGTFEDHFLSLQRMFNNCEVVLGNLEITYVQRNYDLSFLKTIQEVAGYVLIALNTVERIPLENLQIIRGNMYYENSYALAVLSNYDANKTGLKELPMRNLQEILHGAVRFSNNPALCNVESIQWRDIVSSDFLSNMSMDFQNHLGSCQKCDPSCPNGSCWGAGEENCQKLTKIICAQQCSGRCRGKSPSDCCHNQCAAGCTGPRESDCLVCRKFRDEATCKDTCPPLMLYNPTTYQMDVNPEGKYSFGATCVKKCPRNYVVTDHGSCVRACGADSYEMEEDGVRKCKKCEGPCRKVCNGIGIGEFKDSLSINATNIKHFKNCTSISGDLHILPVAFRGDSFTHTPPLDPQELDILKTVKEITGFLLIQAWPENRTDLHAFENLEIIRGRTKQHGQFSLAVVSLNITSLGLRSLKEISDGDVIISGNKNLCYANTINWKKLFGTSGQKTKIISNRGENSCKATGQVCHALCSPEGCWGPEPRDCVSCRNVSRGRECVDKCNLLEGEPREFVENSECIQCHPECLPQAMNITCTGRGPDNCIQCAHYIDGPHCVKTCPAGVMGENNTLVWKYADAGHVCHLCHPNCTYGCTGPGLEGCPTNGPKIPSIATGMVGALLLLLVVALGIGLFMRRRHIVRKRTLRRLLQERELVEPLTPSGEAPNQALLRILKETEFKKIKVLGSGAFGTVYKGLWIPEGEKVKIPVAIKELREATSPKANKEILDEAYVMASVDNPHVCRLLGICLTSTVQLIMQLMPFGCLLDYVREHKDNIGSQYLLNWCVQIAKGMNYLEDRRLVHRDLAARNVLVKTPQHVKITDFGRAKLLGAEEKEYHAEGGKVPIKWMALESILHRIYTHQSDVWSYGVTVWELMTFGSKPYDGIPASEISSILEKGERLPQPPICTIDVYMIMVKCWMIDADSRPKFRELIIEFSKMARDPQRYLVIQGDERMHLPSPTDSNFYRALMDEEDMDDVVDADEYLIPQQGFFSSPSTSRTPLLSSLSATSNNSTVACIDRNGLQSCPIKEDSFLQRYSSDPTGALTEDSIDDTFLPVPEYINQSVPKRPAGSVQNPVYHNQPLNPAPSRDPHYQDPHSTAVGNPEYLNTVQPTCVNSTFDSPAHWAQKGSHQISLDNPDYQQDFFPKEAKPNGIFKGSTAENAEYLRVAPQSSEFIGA
QUANTITY_KIND: IC50 (nM)

// solved cases for IC50 follow
• C=CC(=O)Nc1cccc(N2C(=O)N(C)Cc3cnc(Nc4ccc(N5CCN(C)CC5)cc4OC)nc32)c1 = 3.14
• C=CC(=O)Nc1cccc(N2C(=O)N(C)Cc3cnc(Nc4ccc(N5CCOCC5)cc4OC)nc32)c1 = 28.9
• C=CC(=O)Nc1cccc(N2C(=O)N(C)Cc3cnc(Nc4ccc(N5CCCN(C)CC5)cc4OC)nc32)c1 = 5.17
• C=CC(=O)Nc1cccc(N2C(=O)N(C)Cc3cnc(Nc4ccc(N5CCN(C)CC5)cc4OCC)nc32)c1 = 7.1

I: C=CC(=O)Nc1cccc(N2C(=O)N(c3ccc(OCc4ccccc4)cc3)Cc3cnc(Nc4ccc(N5CCN(C)CC5)cc4OC)nc32)c1
II: C=CC(=O)Nc1cccc(N2C(=O)N(C)Cc3cnc(Nc4ccc(N5CCN(C)CC5)cc4OC(C)C)nc32)c1
Problem: Given the two records I and II , choose the one whose IC50 value is lower. Answer format: the label of the selected item.
Solution: I

###

molecular target: Epidermal growth factor receptor (Homo sapiens, UniProt P00533, T790M); assay: Inhibition of EGFR T790M mutant after 1.5 hr by FRET assay
Sequence (P00533 25-1210 T790M limits assumed): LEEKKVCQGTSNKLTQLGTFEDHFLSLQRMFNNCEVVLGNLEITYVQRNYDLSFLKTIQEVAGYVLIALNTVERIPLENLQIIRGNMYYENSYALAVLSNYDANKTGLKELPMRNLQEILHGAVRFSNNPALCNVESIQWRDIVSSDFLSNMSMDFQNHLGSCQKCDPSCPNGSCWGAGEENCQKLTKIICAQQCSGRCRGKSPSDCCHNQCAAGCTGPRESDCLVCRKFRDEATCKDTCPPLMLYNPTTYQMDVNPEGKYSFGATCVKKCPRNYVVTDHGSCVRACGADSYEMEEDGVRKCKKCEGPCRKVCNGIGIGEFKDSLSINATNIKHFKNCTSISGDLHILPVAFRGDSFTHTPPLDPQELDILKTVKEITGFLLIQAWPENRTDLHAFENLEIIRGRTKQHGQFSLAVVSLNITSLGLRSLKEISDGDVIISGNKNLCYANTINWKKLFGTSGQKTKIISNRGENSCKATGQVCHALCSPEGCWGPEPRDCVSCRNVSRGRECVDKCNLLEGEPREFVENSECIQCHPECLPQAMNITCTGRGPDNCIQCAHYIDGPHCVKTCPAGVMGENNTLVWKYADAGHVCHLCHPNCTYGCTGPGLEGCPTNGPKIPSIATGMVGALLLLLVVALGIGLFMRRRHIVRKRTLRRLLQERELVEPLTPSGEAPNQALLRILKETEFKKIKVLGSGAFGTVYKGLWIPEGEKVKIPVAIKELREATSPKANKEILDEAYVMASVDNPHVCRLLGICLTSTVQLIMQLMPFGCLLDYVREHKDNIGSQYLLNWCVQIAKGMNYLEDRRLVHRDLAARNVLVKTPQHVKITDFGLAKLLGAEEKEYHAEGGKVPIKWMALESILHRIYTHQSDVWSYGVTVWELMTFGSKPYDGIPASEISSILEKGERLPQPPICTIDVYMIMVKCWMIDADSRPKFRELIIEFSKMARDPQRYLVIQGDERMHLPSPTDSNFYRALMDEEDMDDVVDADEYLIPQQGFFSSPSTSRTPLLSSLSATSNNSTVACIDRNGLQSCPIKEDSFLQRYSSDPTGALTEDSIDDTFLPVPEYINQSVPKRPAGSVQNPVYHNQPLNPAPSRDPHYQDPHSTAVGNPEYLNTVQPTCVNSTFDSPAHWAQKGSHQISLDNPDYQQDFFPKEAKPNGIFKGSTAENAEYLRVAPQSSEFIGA
QUANTITY_KIND: IC50 (nM)

• C=CC(=O)Nc1cccc(N2C(=O)N(C)Cc3cnc(Nc4ccc(N5CCCCC5)cc4OC)nc32)c1 = 95.7

1: C=CC(=O)Nc1cccc(N2C(=O)N(C)Cc3cnc(Nc4ccc(N5CCN(C)CC5)cc4OCC)nc32)c1
2: C=CC(=O)Nc1cccc(N2C(=O)N(C)Cc3cnc(Nc4ccccc4)nc32)c1
Problem: Select one: 1 or 2 . Criterion: greater recorded IC50. # answer = label of selected item
Solution: 2

###

experiment: Toxicity in SCID mouse assessed as mortality at 10 mg/kg, po administered qd for 14 days relative to control; assay type: organism-based; design: dose 10 mg/kg, route oral; details: in vivo, read-out: Activity
QUANTITY_KIND: mortality at 336 h

Problem: May I ask what mortality at 336 h has been recorded for C=CC(=O)Nc1cccc(N2C(=O)N(Cc3ccccc3)Cc3cnc(Nc4ccc(N5CCN(C)CC5)cc4OC)nc32)c1 ?
Solution: < 5%

###

target: Epidermal growth factor receptor (Homo sapiens, UniProt P00533, L861Q); experiment: Inhibition of EGFR L861Q mutant after 1.5 hr by FRET assay
Sequence (P00533 25-1210 L861Q limits assumed): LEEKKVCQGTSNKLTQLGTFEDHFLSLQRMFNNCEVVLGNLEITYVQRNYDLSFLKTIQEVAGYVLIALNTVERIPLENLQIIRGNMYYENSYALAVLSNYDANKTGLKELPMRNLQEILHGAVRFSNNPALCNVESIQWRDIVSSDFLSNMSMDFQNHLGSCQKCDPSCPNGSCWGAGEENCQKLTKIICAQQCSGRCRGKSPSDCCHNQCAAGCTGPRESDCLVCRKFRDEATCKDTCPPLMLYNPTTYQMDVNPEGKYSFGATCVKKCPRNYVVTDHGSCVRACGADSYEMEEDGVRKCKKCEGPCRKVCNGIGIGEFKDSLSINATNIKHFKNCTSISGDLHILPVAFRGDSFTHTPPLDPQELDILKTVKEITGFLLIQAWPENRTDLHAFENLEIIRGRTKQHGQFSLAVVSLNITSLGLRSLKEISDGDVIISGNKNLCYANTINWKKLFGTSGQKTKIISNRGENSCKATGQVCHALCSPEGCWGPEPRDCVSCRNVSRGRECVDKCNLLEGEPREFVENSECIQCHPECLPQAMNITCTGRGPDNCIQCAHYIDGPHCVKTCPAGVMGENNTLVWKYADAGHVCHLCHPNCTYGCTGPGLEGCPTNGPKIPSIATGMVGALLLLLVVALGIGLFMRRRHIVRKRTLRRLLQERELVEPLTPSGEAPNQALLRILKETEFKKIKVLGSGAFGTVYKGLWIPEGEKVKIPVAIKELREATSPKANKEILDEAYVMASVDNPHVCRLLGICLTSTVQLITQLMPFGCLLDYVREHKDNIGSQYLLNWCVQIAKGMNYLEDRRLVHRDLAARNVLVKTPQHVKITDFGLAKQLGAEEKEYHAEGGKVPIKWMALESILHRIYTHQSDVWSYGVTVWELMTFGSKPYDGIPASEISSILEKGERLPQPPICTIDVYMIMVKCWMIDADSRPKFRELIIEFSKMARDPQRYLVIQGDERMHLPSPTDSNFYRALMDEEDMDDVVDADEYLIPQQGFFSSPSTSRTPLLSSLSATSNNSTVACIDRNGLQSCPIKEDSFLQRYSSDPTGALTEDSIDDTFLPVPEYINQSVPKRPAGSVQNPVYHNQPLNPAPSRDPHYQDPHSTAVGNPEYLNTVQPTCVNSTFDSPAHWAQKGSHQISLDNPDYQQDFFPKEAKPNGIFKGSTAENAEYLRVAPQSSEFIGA
pIC50: −log10 of the molar value.
QUANTITY_KIND: pIC50

• C=CC(=O)Nc1cccc(N2C(=O)N(C)Cc3cnc(NC)nc32)c1 = 6.08

a: C=CC(=O)Nc1cccc(N2C(=O)N(c3ccc(-c4ccccc4)cc3)Cc3cnc(Nc4ccc(N5CCN(C)CC5)cc4OC)nc32)c1
b: C=CC(=O)Nc1cccc(N2C(=O)N(C)Cc3cnc(Nc4ccc(N5CCCCC5)cc4OC)nc32)c1
Problem: Sorting ascending by pIC50, which comes first: a or b ? Respond with the label that goes with your answer.
Solution: b
(b: 7.81, a: 8.46)

###

assay: cells; conditions: Homo sapiens, HCC827, 72 h
pIC50: −log10 of the molar value.
QUANTITY_KIND: pIC50

Example compounds with recorded pIC50:
- C=CC(=O)Nc1cccc(N2C(=O)N(C(C)C)Cc3cnc(Nc4ccc(N5CCN(C)CC5)cc4OC)nc32)c1: 8.40
- C=CC(=O)Nc1cccc(N2C(=O)N(C)Cc3cnc(Nc4ccc(N5CCN(C)CC5)cc4C)nc32)c1: 7.51
- C=CC(=O)Nc1cccc(N2C(=O)N(C)Cc3cnc(Nc4ccc(N5CCN(C)CC5)cc4OCC)nc32)c1: 7.85
- C=CC(=O)Nc1cccc(N2C(=O)N(C)Cc3cnc(Nc4ccc(N5CCN(C)CC5)cc4F)nc32)c1: 5.30
- C=CC(=O)Nc1cccc(N2C(=O)N(C)Cc3cnc(Nc4ccc(N5CCCN(C)CC5)cc4OC)nc32)c1: 7.14
- COc1cc(N2CCN(C)CC2)ccc1Nc1ncc2c(n1)N(c1cccc(N)c1)C(=O)N(C)C2: 5.31

a: C=CC(=O)Nc1cccc(N2C(=O)N(C)Cc3cnc(NC)nc32)c1
b: C=CC(=O)Nc1cc2c(Nc3ccc(F)c(Cl)c3)ncnc2cc1OCCCN1CCOCC1 [CANERTINIB]
Problem: Between a and b , which one shows the smaller pIC50 number? # reply format: chosen label
Solution: a

###

target: Epidermal growth factor receptor (Homo sapiens, UniProt P00533, T790M); assay: Inhibition of EGFR T790M mutant after 1.5 hr by FRET assay
pIC50: −log10 of the molar value.
QUANTITY_KIND: pIC50

Consider the following illustrative entries.
* C=CC(=O)Nc1cccc(N2C(=O)N(C)Cc3cnc(Nc4ccc(N5CCN(C)CC5)cc4C)nc32)c1 | 8.03
* C=CC(=O)Nc1cccc(N2C(=O)N(C)Cc3cnc(Nc4ccc(N5CCOCC5)cc4OC)nc32)c1 | 7.22
* C=CC(=O)Nc1cccc(N2C(=O)N(c3ccc(OCc4ccccc4)cc3)Cc3cnc(Nc4ccc(N5CCN(C)CC5)cc4OC)nc32)c1 | 8.61

A: C=CC(=O)Nc1cccc(N2C(=O)N(C)Cc3cnc(Nc4ccc(N5CCN(C)CC5)cc4OC)nc32)c1
B: C=CC(=O)Nc1cccc(N2C(=O)N(C)Cc3cnc(Nc4ccc(N5CCN(C)CC5)cc4)nc32)c1
Problem: So which one has the bigger pIC50 here, A or B ? Let me know the label of the one you choose.
Solution: B
(B: 8.78, A: 8.18)

###

tested on: A549; assay: Antiproliferative activity against human A549 cells expressing wild type EGFR coexpressing k-Ras mutant after 72 hrs by MTS assay; details: A549, 72 h
QUANTITY_KIND: IC50 (µM)

# annotated cases, reported IC50 shown
* C=CC(=O)Nc1cccc(N2C(=O)N(c3ccc(OCc4ccccc4)cc3)Cc3cnc(Nc4ccc(N5CCN(C)CC5)cc4OC)nc32)c1 | 2.47
* C=CC(=O)Nc1cccc(N2C(=O)N(C)Cc3cnc(Nc4ccc(N5CCN(C)CC5)cc4OC)nc32)c1 | 15.9
* C=CC(=O)Nc1cccc(N2C(=O)N(Cc3ccccc3)Cc3cnc(Nc4ccc(N5CCN(C)CC5)cc4OC)nc32)c1 | 2.66
* C=CC(=O)Nc1cccc(N2C(=O)N(c3ccccc3)Cc3cnc(Nc4ccc(N5CCN(C)CC5)cc4OC)nc32)c1 | 2.8

I: C=CC(=O)Nc1cccc(N2C(=O)N(C)Cc3cnc(Nc4ccc(N5CCC(N(C)C)CC5)cc4OC)nc32)c1
II: C=CC(=O)Nc1cccc(N2C(=O)N(c3ccc(-c4ccccc4)cc3)Cc3cnc(Nc4ccc(N5CCN(C)CC5)cc4OC)nc32)c1
Problem: Larger number for IC50: I , or II ? Refer to your chosen item by its label in the answer.
Solution: I
(I: 14.5 µM, II: 2.27 µM)

###

test: cells; settings: Homo sapiens, HCC827, 72 h
QUANTITY_KIND: IC50 (nM)

* C=CC(=O)Nc1cccc(N2C(=O)N(C)Cc3cnc(Nc4ccc(N5CCN(C)CC5)cc4)nc32)c1 | 14

A: C=CC(=O)Nc1cccc(N2C(=O)N(C)Cc3cnc(Nc4ccc(N5CCCCC5)cc4OC)nc32)c1
B: C=CC(=O)Nc1cccc(N2C(=O)N(C)Cc3cnc(Nc4ccc(N5CCN(C)CC5)cc4OC)nc32)c1
C: C=CC(=O)Nc1cccc(N2C(=O)N(C)Cc3cnc(Nc4ccc(N(C)C)cc4OC)nc32)c1
Problem: Ranking field: IC50; order: falling. Please, when replying, give the labels in the order that was requested.
Solution: C, A, B

###

target: Epidermal growth factor receptor (Homo sapiens, UniProt P00533, L858R); assay: Inhibition of EGFR L858R mutant after 1.5 hr by FRET assay
Sequence (P00533 25-1210 L858R limits assumed): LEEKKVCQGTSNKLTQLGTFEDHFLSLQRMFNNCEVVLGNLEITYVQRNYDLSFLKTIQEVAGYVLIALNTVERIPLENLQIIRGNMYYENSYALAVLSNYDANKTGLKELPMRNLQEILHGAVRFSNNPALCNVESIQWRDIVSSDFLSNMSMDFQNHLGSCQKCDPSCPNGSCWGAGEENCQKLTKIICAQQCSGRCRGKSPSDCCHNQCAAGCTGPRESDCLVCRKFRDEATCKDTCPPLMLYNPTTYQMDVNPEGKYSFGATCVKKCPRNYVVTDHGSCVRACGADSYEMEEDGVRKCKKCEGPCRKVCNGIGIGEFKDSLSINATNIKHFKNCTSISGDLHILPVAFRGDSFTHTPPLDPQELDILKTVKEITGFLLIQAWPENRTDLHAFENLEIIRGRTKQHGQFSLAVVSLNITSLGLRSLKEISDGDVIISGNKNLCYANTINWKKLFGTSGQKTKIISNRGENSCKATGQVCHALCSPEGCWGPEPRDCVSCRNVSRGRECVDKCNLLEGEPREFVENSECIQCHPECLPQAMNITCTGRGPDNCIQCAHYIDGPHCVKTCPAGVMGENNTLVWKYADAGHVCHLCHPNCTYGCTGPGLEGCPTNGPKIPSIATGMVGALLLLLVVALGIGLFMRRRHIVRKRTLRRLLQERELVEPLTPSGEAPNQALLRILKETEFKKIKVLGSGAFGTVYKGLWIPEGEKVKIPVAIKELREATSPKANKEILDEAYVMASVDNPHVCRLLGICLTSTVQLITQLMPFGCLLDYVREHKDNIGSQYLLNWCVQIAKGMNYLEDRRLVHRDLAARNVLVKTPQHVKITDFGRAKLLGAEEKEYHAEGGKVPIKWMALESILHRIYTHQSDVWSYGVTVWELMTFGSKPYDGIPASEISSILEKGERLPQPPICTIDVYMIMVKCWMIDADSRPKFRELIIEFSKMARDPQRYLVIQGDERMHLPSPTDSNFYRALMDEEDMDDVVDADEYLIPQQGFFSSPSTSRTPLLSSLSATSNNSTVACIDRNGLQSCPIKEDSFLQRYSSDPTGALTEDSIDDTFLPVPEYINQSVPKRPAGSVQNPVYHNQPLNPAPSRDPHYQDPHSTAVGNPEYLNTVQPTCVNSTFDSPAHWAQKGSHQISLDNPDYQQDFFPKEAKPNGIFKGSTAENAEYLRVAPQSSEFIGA
QUANTITY_KIND: IC50 (nM)

Reference set (10 entries):
• C=CC(=O)Nc1cccc(N2C(=O)N(C)Cc3cnc(Nc4ccc(N5CCN(C)CC5)cc4OC(C)C)nc32)c1 = 13.7
• C=CC(=O)Nc1cccc(N2C(=O)N(c3ccccc3)Cc3cnc(Nc4ccc(N5CCN(C)CC5)cc4OC)nc32)c1 = 0.46
• C=CC(=O)Nc1cccc(N2C(=O)N(C(C)C)Cc3cnc(Nc4ccc(N5CCN(C)CC5)cc4OC)nc32)c1 = 0.45
• C=CC(=O)Nc1cccc(N2C(=O)N(Cc3ccccc3)Cc3cnc(Nc4ccc(N5CCN(C)CC5)cc4OC)nc32)c1 = 0.38
• C=CC(=O)Nc1cccc(N2C(=O)N(C)Cc3cnc(Nc4ccc(N5CCN(C)CC5)cc4C)nc32)c1 = 1.21
• C=CC(=O)Nc1cccc(N2C(=O)N(C)Cc3cnc(Nc4ccc(N5CCOCC5)cc4OC)nc32)c1 = 10.3
• C=CC(=O)Nc1cccc(N2C(=O)N(C)Cc3cnc(Nc4ccc(N(C)C)cc4OC)nc32)c1 = 4.95
• C=CC(=O)Nc1cccc(N2C(=O)N(c3ccc(Oc4ccccc4)cc3)Cc3cnc(Nc4ccc(N5CCN(C)CC5)cc4OC)nc32)c1 = 1.66
• C=CC(=O)Nc1cccc(N2C(=O)N(C)Cc3cnc(Nc4ccc(N5CCN(C)CC5)cc4OC)nc32)c1 = 1.08
• C=CC(=O)Nc1cccc(N2C(=O)N(C)Cc3cnc(Nc4ccccc4)nc32)c1 = 10.9

A: C=CC(=O)Nc1cccc(N2C(=O)N(c3ccc(OCc4ccccc4)cc3)Cc3cnc(Nc4ccc(N5CCN(C)CC5)cc4OC)nc32)c1
B: C=CC(=O)Nc1cccc(N2C(=O)N(C)Cc3cnc(Nc4ccc(N5CCN(C)CC5)cc4)nc32)c1
C: C=CC(=O)Nc1cccc(N2C(=O)N(C)Cc3cnc(Nc4ccc(N5CCCCC5)cc4OC)nc32)c1
D: C=CC(=O)Nc1cccc(N2C(=O)N(c3ccc(-c4ccccc4)cc3)Cc3cnc(Nc4ccc(N5CCN(C)CC5)cc4OC)nc32)c1
Problem: Arrange the 4 compounds from largest to smallest IC50. Answer by writing out the labels in the requested order.
Solution: C, A, D, B
(C: 10.4 nM, A: 2.42 nM, D: 1.67 nM, B: 0.53 nM)
